Test system: NCI-H23 lung
Assay: NCI tumour cell line growth inhibition, 48 h
Property Label: GI50

Example results:
Ask | Which GI50 value is on record for `COc1cccc2c(Nc3ccc(C(=O)NCCNCCO)cc3)cc(-c3ccccc3)nc12` ?
Reply | 63.3 µM

Ask | Report GI50 for `COc1cc2c3c(n(CCCO)c(=O)c2cc1OC)-c1cc2c(cc1C3=O)OCO2` please.
Reply | 6.75 µM

Ask | Field request: GI50 | item: `COc1cc(-c2cc(C(=O)Nc3nc4ccccc4s3)nc3cc(-c4ccccc4)nn23)cc(OC)c1OC`
Reply | 11.5 µM

Ask | Need GI50 of `COc1ccc(/C=C/C(=O)/C=C(/C=C/c2ccc(OC)c(OC)c2)OB(F)F)cc1OC` , thanks.
Reply | 1.33 µM

Here is another compound to look at.
Ask | Reported GI50, compound `OCc1ccc(N(Cc2ccc(F)cc2)C2CCC2)cc1Cl` : ____
Reply | 9.41 µM
